# pre-steady-state target cleavage rate per entry
# Test system: MIWI (PIWIL1) piRISC loaded with L1MC piRNA (30 nt);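 also: 1 nM active piRISC with 0.1 nM target library at 33 °C single turnover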
# method.summary: pre-steady-state target cleavage rate (min^-1); MIWI and MILI are mouse PIWI proteins and EfPiwi is from a freshwater sponge; tags in brackets are library labels; higher = faster piRNA-guided slicing of the target;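 also: 1 nM active piRISC with 0.1 nM target library at 33 °C single turnover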
# experimental.setup: guide: L1MC piRNA 5'p-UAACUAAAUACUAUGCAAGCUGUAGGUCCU; auxiliary factor: 500 nM mouse GTSF1
In all, about 8,200 sequences were measured (“pre-steady-state target cleavage rate”: median about 0.024, highest 2% from about 1.3 on). The full list was thinned out, with the highest values kept by preference.
Reply with just the number.

// below: answered sequences
UCGACCUACAGCUUGAAUAGUAUUUAGUUA :: 1.48
UGGACCUACAGCUCGCAUAGUAUUUAGUUA :: 1.54
AGGACCUACAGCUGGCAUAGUAUUUAGUUA :: 1.29
AGGACCUACAGCUUGAAUAGUAUUUAGUUA :: 1.44
UCGACCUACAGCUUGAUAGUAUUUAGUUA :: 1.08
UCCUGGAACAGCAUGCAUAGUAUUUACUUA :: 0.446
UCCACCUACAGCUCGCAUAGUAUUUAGUUA :: 1.11
UCGACCUACAGCUCGCAUAGUAUUUAGUUA :: 1.55

Incoming: Report measured pre-steady-state target cleavage rate; entry is `UGGACCUACAGCUACCAUAGUAUUUAGUUA`
Outgoing: 0.493

Incoming: Report measured pre-steady-state target cleavage rate; entry is `UCCUCCUACAGCUCGCAUAGUAUUUAGUUA`
Outgoing: 1.31

Incoming: Report measured pre-steady-state target cleavage rate; entry is `AGGACCUACAGCUCGCAUAGUAUUUAGUUA`
Outgoing: 1.35

Incoming: Report measured pre-steady-state target cleavage rate; entry is `UCCUCCUACAGCUUGCAUAGUAUUGUAGUUA`
Outgoing: 0.282

Sourced from the supplement of paper PMC10338343
